Test: IV pharmacokinetics
Format: in vivo
Conditions: rat, in vivo, Sprague Dawley rats, 2 mg/kg, normal saline
REPORTED_METRIC: clearance (mL/min/kg)

* CC(C)CN1[C@]2(CC[C@]13CNC3=O)CNC2=O | 5.2
* CC(C)CN1[C@@]2(CC[C@@]13CNC3=O)CNC2=O | 7.01
* O=C1NCC12CCC1(CNC1=O)N2 (single isomer, unassigned) | 15.4

---

Test: IV pharmacokinetics
Format: in vivo
Conditions: Sprague Dawley, rat, in vivo, iv, 2 mg/kg, Sprague Dawley rats, normal saline, read-out: Vss
Please note: TRUE applies when Vd is 0.6 L/kg or greater, and FALSE applies otherwise.

• C[C@@H](O)[C@@H](C(N)=O)N1CC2(CCC3(CN([C@H](C(N)=O)[C@@H](C)O)C3=O)N2C(=O)OC(C)(C)C)C1=O (stereo partly drawn) = FALSE
• CC(C)C(=O)N1C2(CCC13CNC3=O)CNC2=O (single isomer, unassigned) = TRUE
• CC(=O)N1C(C(=O)N[C@H](C(N)=O)[C@@H](C)O)CCC12CNC2=O (stereo partly drawn) = FALSE
• CC(C)(C)OC(=O)N1C(C(N)=O)CCC12CN(OCc1ccccc1)C2=O (single isomer, unassigned) = TRUE
• C[C@@H](O)[C@H](NC(=O)C1CCC2(CNC2=O)N1)C(N)=O (single isomer, unassigned) = FALSE
